Target: CBL-B (Homo sapiens, UniProt Q13191)
Construct: GST
Sequence (Q13191 whole entry): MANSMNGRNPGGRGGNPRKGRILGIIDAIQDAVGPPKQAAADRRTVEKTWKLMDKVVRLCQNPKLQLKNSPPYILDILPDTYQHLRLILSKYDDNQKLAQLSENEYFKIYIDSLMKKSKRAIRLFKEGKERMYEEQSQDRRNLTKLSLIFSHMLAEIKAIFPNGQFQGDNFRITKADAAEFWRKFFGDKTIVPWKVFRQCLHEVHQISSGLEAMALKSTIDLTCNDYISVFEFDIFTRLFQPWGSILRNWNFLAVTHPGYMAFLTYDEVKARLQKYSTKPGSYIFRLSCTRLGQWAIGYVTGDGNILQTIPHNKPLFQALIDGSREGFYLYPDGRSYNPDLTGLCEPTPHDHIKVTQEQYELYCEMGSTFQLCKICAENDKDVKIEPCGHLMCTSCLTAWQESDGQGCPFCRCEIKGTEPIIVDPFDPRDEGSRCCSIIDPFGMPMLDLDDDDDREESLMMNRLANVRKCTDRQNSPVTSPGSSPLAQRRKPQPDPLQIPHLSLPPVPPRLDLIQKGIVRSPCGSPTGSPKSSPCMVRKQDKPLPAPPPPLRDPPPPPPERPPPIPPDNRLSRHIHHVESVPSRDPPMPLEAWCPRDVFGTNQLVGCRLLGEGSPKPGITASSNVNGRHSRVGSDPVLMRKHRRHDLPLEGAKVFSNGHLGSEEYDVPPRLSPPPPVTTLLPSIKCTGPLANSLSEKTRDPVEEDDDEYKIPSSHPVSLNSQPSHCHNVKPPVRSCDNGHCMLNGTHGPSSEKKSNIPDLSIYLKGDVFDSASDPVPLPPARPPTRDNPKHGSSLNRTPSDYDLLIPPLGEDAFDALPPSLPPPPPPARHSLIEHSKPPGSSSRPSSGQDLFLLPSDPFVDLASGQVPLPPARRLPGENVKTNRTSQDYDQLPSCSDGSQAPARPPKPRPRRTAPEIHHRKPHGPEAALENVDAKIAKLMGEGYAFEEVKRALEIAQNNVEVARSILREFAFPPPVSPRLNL
Assay: CBL-B TR-FRET IC50 screening (E1/E2 ubiquitination, Biotin-Ubiquitin, Anti GST-Tb donor / Streptavidin-d2 acceptor)
Assay type: biochemical
Conditions: CBL-B 10 nM final; 11-point titration from 100 uM; binned A-F; read-out: CBL-B TR-FRET activity IC50
pIC50: −log10 of the molar value.
What pIC50 was measured for each of the following?

Fill blank: measured pIC50 of the compound C[C@H]1CCCN(C(c2cc(C(F)(F)F)c3cn(-c4cccc(C5(Cc6nncn6C)COC5)c4)c(=O)n3c2)C(F)(F)F)C1 (single isomer, unassigned) [Compound 195] is ____.
6.52 to 7.00

Fill blank: measured pIC50 of the compound Cn1cnnc1C1(c2cccc(-n3cc4c(C(F)(F)F)cc(Br)cn4c3=O)c2)COC1 [Compound 230] is ____.
< 5.00

Fill blank: measured pIC50 of the compound O=c1n(-c2cccc([C@H](c3nncs3)C3CCC3)c2)cc2c(C(F)(F)F)cc(CN3CCC(F)CC3)cn12 [Compound 333] is ____.
6.52 to 7.00

Fill blank: measured pIC50 of the compound Cc1sc(C#N)nc1[C@H](c1cccc(-n2cc3c(C(F)(F)F)cc(CN4CCC[C@H](C)C4)cn3c2=O)c1)C1CCC1 (single isomer, unassigned) [Compound 371] is ____.
< 5.00

Fill blank: measured pIC50 of the compound Cn1cnnc1[C@]1(c2cccc(-n3cc4c(C(F)(F)F)cc(CN5CCC6(CC6)C5)cn4c3=O)c2)C[C@@H](C)C1 (single isomer, unassigned) [Compound 215] is ____.
> 7.00

Fill blank: measured pIC50 of the compound CC1CC(c2cccc(-n3cc4c(C(F)(F)F)cc(Br)cn4c3=O)c2)(c2nncn2C)C1 (single isomer, unassigned) [Compound 154] is ____.
> 7.00

Fill blank: measured pIC50 of the compound CN(Cc1cc(C(F)(F)F)c2cn(-c3cccc([C@H](c4nncn4C)C4CCC4)c3)c(=O)n2c1)Cc1cncs1 [Compound 275] is ____.
> 7.00

Fill blank: measured pIC50 of the compound C[C@@H]1CN(Cc2cc(C(F)(F)F)c3cn(-c4cccc([C@H](c5nncn5C)C5CCC5)c4)c(=O)n3c2)CCS1 [Compound 290] is ____.
> 7.00

Fill blank: measured pIC50 of the compound CC(C)C[C@@H](c1cccc(-n2cc3c(C(F)(F)F)cc(CN4CCC[C@H](C)C4)cn3c2=O)c1)c1nncn1C (single isomer, unassigned) [Compound 152] is ____.
< 5.00

Fill blank: measured pIC50 of the compound [2H]C([2H])([2H])n1cnnc1CC1(c2cccc(-n3cc4c(C(F)(F)F)cc(Br)cn4c3=O)c2)COC1 [Compound 145] is ____.
6.52 to 7.00

Fill blank: measured pIC50 of the compound Cn1cnnc1[C@@H](c1cccc(-n2cc3c(C(F)(F)F)cc(CNCC4COC4)cn3c2=O)c1)C1CCC1 [Compound 322] is ____.
> 7.00

Fill blank: measured pIC50 of the compound [2H]C([2H])([2H])n1cnnc1C1(c2cccc(-n3cc4c(C(F)(F)F)cc(CN5CCC[C@H](C)C5)cn4c3=O)c2)CC2(CC2)C1 [Compound 102] is ____.
> 7.00
